System: PRKD2;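 further: KINOMEscan kinase panel screen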
Conditions: concentration: 1 μM, replicates: in singlicate; n = 1
observationType: %Inh (%)
Answers are plain numbers, in %.

Use the examples below as a reference point.
CC(=O)Nc1cn2nc(Oc3cccc(NC(=O)c4cccc(C(F)(F)F)c4)c3)ccc2n1 17
Nc1ncnc2scc(-c3ccc(NC(=O)Cc4cc(F)ccc4F)cc3)c12.O=C(O)C(F)(F)F 0
Cl.O=C(Nc1ccc(Oc2ccc3[nH]c(NC(=O)c4ccco4)nc3c2)cc1)Nc1cc(C(F)(F)F)ccc1F 0

Here is the next item to consider.
Ask | # lookup: %Inh of `Cc1ccc(O)cc1Nc1ccnc2ccc(C(C)(C)C)cc12`
Reply | 13
